test system: other serine hydrolase activities; assay: In situ competitive ABPP with FP-rhodamine, other serine hydrolases; type: cell-based, human; details: SKOV-3 cells treated in culture with AS115 (0-10 μM), 4 h
pIC50: −log10 of the molar value.
measurement-kind: pIC50

Q. Entry CCCCOCC1CCCCC1COCCNC(=O)Oc1ccccc1F (stereo not shown) , system other serine hydrolase activities: what pIC50 was measured?
A. < 5.00
